System: rat aortas
assay_info: Contraction of rat aortas induced by potassium depolarization (hyperpotassium medium)
Set-up: species or system WISTAR rat
condition_label: 80 mM KCl, 37 mM NaCl, read-out: IC50 (concentration inhibiting by 50% the contraction of rat aortas induced by potassium depolarization)
Counter-ions that a name gives are not always drawn.
Cut-off 2000 nM on IC50: below means class 1, at or above means class 0.

# molecule, class_label
records = [
    ("CN(C1CCN(CCCCOc2ccccc2)CC1)S(=O)(=O)c1cccc2cnccc12 [Example 3, fumarate]", "class 1"),
    ("O=S(=O)(NCC1CCN(CCCNc2ccc(F)cc2)CC1)c1cccc2cnccc12 [Example 24, fumarate]", "class 0"),
    ("O=S(=O)(NC1CCN(CCCCOc2ccc(F)cc2)CC1)c1cccc2cnccc12 [Example 13, dihydrochloride]", "class 0"),
    ("CCN(C1CCN(CCCCOc2ccc(F)cc2)CC1)S(=O)(=O)c1cccc2cnccc12 [Example 26, dihydrochloride]", "class 0"),
    ("CN(C1CCN(CCCCOc2ccc([N+](=O)[O-])cc2)CC1)S(=O)(=O)c1cccc2cnccc12 [Example 2, fumarate]", "class 1"),
    ("CN(CC1CCN(CCCOc2ccccc2)CC1)S(=O)(=O)c1cccc2cnccc12 [Example 19]", "class 0"),
    ("O=S(=O)(NCC1CCN(CCCOc2ccc(F)cc2)CC1)c1cccc2cnccc12 [Example 15]", "class 0"),
    ("COc1ccc(OCCCCN2CCC(N(C)S(=O)(=O)c3cccc4cnccc34)CC2)cc1 [Example 7, hydrochloride]", "class 1"),
    ("CN(CC1CCN(CCCOc2ccc(F)cc2)C1)S(=O)(=O)c1cccc2cnccc12 (stereo not shown) [Example 22, dihydrochloride]", "class 0"),
    ("CN(C1CCN(CCCCOc2ccc(C#N)cc2)CC1)S(=O)(=O)c1cccc2cnccc12 [Example 8, dihydrochloride]", "class 1"),
    ("CN(C1CCN(CCCCSc2ccc(F)cc2)CC1)S(=O)(=O)c1cccc2cnccc12 [Example 12, dihydrochloride]", "class 1"),
    ("CN(C1CCN(CCCCOc2ccc(Cl)cc2)CC1)S(=O)(=O)c1cccc2cnccc12 [Example 6, hydrochloride]", "class 1"),
    ("CN(CC1CCN(CCCCOc2ccc(F)cc2)C1)S(=O)(=O)c1cccc2cnccc12 (stereo not shown) [Example 21, dihydrochloride]", "class 1"),
]

Source of measurements: patent US5208243A
